# procedure-details: Terminal half life in rat at 2 mg/kg, iv
# Assay type: ADME, organism-based
# Set-up: dose 2 mg/kg, route intravenous
# conditions-used: in vivo, read-out: beta t1/2 (converted)
assay-readout: half-life

[[record]]
smiles_entry = "COc1ccc(S(=O)(=O)N2C(=O)[C@@](c3ccccc3OC)(N3C[C@H](O)C[C@H]3C(=O)N(C)C)c3cc(Cl)ccc32)c(OC)c1"
reading = "0.5 h"

[[record]]
smiles_entry = "CNCc1ccc(OC)c([C@@]2(N3CCC[C@H]3c3ncco3)C(=O)N(S(=O)(=O)c3ccc(OC)cc3)c3ccc(Cl)cc32)c1"
reading = "3.3 h"


Reference source: ChEMBL document CHEMBL1777717
